# target_entity: Gal4 DNA binding domain fused to the LBD of LXRα in HEK293 cells (Homo sapiens (Human))
# Sequence (Q13133 209-447): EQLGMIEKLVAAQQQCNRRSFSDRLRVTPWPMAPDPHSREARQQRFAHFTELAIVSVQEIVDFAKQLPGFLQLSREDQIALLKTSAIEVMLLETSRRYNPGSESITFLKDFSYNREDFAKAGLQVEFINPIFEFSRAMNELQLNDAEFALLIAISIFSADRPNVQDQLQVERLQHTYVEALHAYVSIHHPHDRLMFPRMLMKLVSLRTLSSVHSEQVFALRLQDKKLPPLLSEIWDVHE
# experiment_notes: LXR luciferase transcriptional reporter gene assay, agonist mode, LXRα
# Format: cell-based
# stated_conditions: agonist mode; read-out: Cell LXRα EC50
observation_type: pEC50
Interpret pEC50 as the negative base-10 log of the concentration measured in mol/L.

The examples below pair each entry with its known result.
[
  {
    "molecule": "CC(C)[C@H]1CN(c2cccc(S(C)(=O)=O)c2)CCN1C[C@H]1CC[C@@H](C(F)(F)F)CC1 (single isomer, unassigned)",
    "pEC50": 7.28
  },
  {
    "molecule": "CC(C)[C@@H]1CN(c2ccc(F)c(S(C)(=O)=O)c2)CCN1c1nc(C(F)(F)F)c(C(C)(C)O)s1",
    "pEC50": 6.23
  },
  {
    "molecule": "CS(=O)(=O)c1cccc(N2CCN(C[C@H]3CC[C@@H](C(F)F)CC3)[C@@H](c3ccccc3)C2)c1 (single isomer, unassigned)",
    "pEC50": 6.90
  },
  {
    "molecule": "COC(=O)c1cnc(N2CCN(c3ccc(F)c(S(C)(=O)=O)c3)C[C@H]2c2ccc(F)cc2)nc1C(F)(F)F",
    "pEC50": 5.52
  },
  {
    "molecule": "CC(C)[C@@H]1CN(c2ccc(C#N)c(S(C)(=O)=O)c2)CCN1c1cc(C(F)(F)F)ccn1",
    "pEC50": 5.82
  }
]

Reported pEC50, molecule CCOC(=O)c1cnc(N2CCN(c3ccc(-c4nc(C)no4)c(S(C)(=O)=O)c3)C[C@H]2C(C)C)nc1C(F)(F)F : ____
4.82

Reported pEC50, molecule CC(C)[C@@H]1CN(c2ccc(F)c(S(C)(=O)=O)c2)CCN1c1nccc(C#N)n1 : ____
5.83
